TARGET: hEP2/Gqs5 (Homo sapiens)
Sequence (P43116 whole entry): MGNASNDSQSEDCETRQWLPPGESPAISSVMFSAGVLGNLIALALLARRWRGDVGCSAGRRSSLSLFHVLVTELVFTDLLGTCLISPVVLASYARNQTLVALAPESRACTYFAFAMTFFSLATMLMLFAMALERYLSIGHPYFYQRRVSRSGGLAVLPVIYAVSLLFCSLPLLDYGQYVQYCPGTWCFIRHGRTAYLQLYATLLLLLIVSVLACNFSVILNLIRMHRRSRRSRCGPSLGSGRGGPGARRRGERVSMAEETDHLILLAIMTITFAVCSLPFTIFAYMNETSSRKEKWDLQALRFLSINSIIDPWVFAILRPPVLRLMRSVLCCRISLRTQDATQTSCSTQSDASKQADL
EXPERIMENT: FLIPR calcium signal, EP2
MEASUREMENT_SETUP: HEK-293(EBNA) cells, read-out: EP2 Ca2+ EC50
READOUT_KIND: EC50 (µM)
Your answer should be a plain number; it is taken to be in µM.

Record CCCCCC(=O)c1ccc([C@@H]2[C@@H](C/C=C\CCCC(=O)O)[C@H](Cl)C[C@H]2O)cc1 [drawing 41] , field EC50: 0.031
